Reference for the values: paper PMC3626661

molecular target: HarmOR16 (Helicoverpa armigera, UniProt C6K7B8); construct: full-length ORF; with HarmOrco (HarmOR2); assay: two-electrode voltage clamp in Xenopus oocytes, dose-response
Sequence (C6K7B8 1-422, one chain of several): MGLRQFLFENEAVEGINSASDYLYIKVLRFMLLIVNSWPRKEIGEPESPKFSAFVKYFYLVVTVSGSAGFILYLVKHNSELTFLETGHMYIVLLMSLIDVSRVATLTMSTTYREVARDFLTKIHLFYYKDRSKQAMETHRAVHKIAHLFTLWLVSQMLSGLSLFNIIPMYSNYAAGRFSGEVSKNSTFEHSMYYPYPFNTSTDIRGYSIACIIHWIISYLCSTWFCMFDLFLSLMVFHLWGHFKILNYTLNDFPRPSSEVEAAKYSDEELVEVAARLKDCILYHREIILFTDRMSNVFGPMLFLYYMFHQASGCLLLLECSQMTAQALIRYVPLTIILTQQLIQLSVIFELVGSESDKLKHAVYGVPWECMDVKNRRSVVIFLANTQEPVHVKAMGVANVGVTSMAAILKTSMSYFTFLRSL
experimental_readout: EC50

Record for CCCC/C=C\CCCCCCCCCCO [Z11-16:OH, (Z)-11-hexadecen-1-ol] under target or system HarmOR16 (Helicoverpa armigera, UniProt C6K7B8): EC50 reported as 299 nM

---

Target: HarmOR13 (Helicoverpa armigera)
Construct: full-length ORF; with HarmOrco (HarmOR2)
Sequence (A0A075TD52 1-425): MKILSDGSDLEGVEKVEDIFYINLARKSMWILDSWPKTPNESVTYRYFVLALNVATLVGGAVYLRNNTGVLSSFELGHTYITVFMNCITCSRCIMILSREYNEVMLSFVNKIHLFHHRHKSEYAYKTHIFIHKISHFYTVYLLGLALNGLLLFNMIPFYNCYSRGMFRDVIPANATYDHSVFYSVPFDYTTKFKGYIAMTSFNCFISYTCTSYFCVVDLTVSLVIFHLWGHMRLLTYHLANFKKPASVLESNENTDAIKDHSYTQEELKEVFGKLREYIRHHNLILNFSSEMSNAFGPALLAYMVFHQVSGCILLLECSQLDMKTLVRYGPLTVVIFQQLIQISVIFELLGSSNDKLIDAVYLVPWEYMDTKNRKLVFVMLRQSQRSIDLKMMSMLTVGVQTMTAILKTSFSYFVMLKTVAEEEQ
Sequence (A0A075TD45 1-473 partner): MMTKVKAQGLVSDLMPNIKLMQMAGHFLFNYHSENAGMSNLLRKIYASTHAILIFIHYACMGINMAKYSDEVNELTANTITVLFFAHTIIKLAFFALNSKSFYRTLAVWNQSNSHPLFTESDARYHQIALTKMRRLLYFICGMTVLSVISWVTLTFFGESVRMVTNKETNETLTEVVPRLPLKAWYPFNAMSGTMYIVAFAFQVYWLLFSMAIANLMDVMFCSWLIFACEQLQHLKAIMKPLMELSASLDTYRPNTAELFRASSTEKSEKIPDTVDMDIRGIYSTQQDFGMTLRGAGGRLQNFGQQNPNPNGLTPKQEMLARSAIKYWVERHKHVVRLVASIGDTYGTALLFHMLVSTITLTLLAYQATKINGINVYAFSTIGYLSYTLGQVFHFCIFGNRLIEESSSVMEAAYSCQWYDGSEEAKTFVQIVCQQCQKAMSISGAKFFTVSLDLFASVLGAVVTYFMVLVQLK
Assay: two-electrode voltage clamp in Xenopus oocytes, dose-response
experimental_readout: EC50 (µM)
Numbers only, in µM.

Entry CCCC/C=C\CCCCCCCCCC=O [Z11-16:Ald, (Z)-11-hexadecenal] ; EC50 = 1.82
